# TGT: DGKζ (Homo sapiens (Human))
# Sequence (Q13574 whole entry): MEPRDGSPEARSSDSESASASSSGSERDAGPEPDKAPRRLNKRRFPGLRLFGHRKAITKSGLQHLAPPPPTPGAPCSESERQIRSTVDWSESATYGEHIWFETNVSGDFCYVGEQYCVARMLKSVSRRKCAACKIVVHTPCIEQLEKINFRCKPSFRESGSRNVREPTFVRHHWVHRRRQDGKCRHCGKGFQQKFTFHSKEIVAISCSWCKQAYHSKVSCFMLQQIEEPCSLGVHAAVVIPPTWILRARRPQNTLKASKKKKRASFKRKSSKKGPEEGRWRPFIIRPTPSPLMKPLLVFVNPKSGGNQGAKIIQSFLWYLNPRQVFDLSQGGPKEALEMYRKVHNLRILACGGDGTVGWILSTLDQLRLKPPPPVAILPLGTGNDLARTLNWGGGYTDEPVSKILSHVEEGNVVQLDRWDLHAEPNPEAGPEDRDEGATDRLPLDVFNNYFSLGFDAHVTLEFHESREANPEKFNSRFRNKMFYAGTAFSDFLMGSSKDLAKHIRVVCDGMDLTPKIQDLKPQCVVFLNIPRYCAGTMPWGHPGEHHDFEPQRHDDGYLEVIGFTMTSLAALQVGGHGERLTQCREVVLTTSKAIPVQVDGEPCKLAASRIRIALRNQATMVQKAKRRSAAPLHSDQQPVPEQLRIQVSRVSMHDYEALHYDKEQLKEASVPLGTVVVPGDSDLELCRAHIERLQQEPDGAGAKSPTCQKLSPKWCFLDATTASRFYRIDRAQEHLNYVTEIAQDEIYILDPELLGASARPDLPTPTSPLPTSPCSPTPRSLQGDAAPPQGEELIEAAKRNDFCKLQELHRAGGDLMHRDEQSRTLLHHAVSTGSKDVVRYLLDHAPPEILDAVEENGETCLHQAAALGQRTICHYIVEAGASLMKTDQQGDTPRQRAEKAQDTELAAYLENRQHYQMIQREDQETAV
# PROTOCOL_DESCRIPTION: In vitro DGKζ inhibition assay (ADP-Glo)
# RUN_CONDITIONS: His-tagged human recombinant enzyme, 0.4 nM DGK, 30 μM ATP, 20 μM DLG, 90 minute incubation
METRIC_NAME: IC50

IC50 reading for Cc1nc2c(N3C[C@@H](C)N(C(c4cc(F)c(F)c(F)c4)C4CC(F)(F)C4)C[C@@H]3C)nc3nncn3c2n1C[C@@H]1CCCO1 (stereo partly drawn) : ≤ 20 nM

IC50 reading for Cc1nnc2nc(N3C[C@@H](C)N(C(c4ccc(F)cc4)c4ccc(F)cc4)C[C@@H]3C)c3ncsc3n12 : 200 to 2000 nM

IC50 reading for Cc1nc2c(N3C[C@@H](C)N(C(c4ccc(F)c(C(F)(F)F)c4)C(C)C)C[C@@H]3C)nc3nncn3c2n1C[C@@H]1CCCO1 (stereo partly drawn) : ≤ 20 nM

IC50 reading for Cc1nc2c(N3C[C@@H](C)N(C(c4ccc(Br)cc4)c4ccc(F)c(Cl)c4)C[C@@H]3C)nc3nncn3c2n1C[C@@H]1CCCO1 (single isomer, unassigned) : ≤ 20 nM

IC50 reading for CC[C@@H]1CN(c2nc3nncn3c3c2ncn3CCN(C)C)[C@@H](C)CN1C(c1ccc(Cl)cc1)C1CC(F)(F)C1 (stereo partly drawn) : ≤ 20 nM

IC50 reading for Cc1nc2c(N3C[C@@H](C)N([C@H](c4cccc(Cl)c4)C(C)C)C[C@@H]3C)nc3nncn3c2n1C[C@@H]1CCCO1 : ≤ 20 nM
